The reported numbers originate from patent US10336762B2.

The entries below are paired with their reported IC50.
Target: IRAK4 enzyme (Homo sapiens (Human), UniProt Q9NWZ3)
Sequence (Q9NWZ3 whole entry): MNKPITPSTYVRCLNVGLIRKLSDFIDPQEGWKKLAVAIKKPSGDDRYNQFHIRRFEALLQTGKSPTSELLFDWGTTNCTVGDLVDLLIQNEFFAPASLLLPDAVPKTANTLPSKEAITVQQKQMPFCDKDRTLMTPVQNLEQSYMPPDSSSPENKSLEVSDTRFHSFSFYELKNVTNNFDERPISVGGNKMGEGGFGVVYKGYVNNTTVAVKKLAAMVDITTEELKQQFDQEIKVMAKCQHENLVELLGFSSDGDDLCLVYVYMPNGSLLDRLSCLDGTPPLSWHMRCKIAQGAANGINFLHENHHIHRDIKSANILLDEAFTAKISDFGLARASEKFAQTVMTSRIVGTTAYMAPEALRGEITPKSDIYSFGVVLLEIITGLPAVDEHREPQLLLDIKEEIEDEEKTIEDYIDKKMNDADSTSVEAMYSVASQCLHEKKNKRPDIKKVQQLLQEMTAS
Assay: biochemical
Assay type: biochemical
Settings: IRAK4 enzyme, TR-FRET, 500 μM ATP
reported_metric: IC50

                                   molecule                             target_entity  reported_metric  measured
0  CC(C)Nc1cc(-c2ccc3cc(C#N)cnn23)ncc1C(=O)N[C@H]1CC[C@H](O)C1 [Example 189]  IRAK4 enzyme (Homo sapiens (Human), UniProt Q9NWZ3)             IC50  0.006 µM
1  CNC(=O)O[C@H]1C[C@H](Nc2cc(-c3ccc4cc(C#N)cnn34)ncc2C(=O)NC[C@@H](F)C(C)(C)O)C1 [Example 162]  IRAK4 enzyme (Homo sapiens (Human), UniProt Q9NWZ3)             IC50  0.376 µM
2  CC(C)(O)[C@H](F)CNC(=O)c1cnc(-c2ccc3cc(C#N)cnn23)cc1N[C@H]1CC[C@H](NC(=O)OC2COC2)CC1 [Example 280]  IRAK4 enzyme (Homo sapiens (Human), UniProt Q9NWZ3)             IC50  0.001 µM
3  CC(C)(O)[C@H](F)CNC(=O)c1cnc(-c2ccc3cc(C#N)cnn23)cc1-n1cc(-c2ccc(N)cn2)cn1 [Example 939]  IRAK4 enzyme (Homo sapiens (Human), UniProt Q9NWZ3)             IC50  0.642 µM

====

The entries below are paired with their reported pIC50.
Molecular target: IRAK4 enzyme (Homo sapiens (Human))
Assay: biochemical
Assay type: biochemical
Details: IRAK4 enzyme, TR-FRET (HTRF), 500 μM ATP
pIC50: −log10 of the molar value.
reported_metric: pIC50

In [3]: df
Out[3]:
                                    compound  reported_relation  measured
 0  COC(=O)N[C@]1(C)CC[C@@H](Nc2cc(-c3ccc4cc(C#N)cnn34)ncc2C(=O)NC[C@@H](F)C(C)(C)O)CC1                  =      8.40
 1  CC(C)(O)[C@H](F)CNC(=O)c1cnc(-c2ccc3cc(C#N)cnn23)cc1N[C@H]1C[C@H](CNC(=O)[C@@H]2C[C@H]2F)C1                  >      9.00
 2  CNC(=O)c1cnc(-c2ccc3cc(C#N)cnn23)cc1NC12CC(NC(C)=O)(C1)C2                  =      9.00
 3  CC(C)(O)[C@H](F)CNC(=O)c1cnc(-c2ccc3cc(C#N)cnn23)cc1NC12CCC(F)(CC1)CC2                  =      8.70
 4  CC(C)(O)[C@H](F)CNC(=O)c1cnc(-c2ccc3cc(C#N)cnn23)cc1NC1CC(Cc2cnco2)C1 (single isomer, unassigned) [Example 640]                  =      9.00
 5  CC(C)(O)[C@H](F)CNC(=O)c1cnc(-c2ccc3cc(C#N)cnn23)cc1N[C@H]1CC[C@H](N2CCC(F)(F)C2)CC1                  =      8.15
 6  CC(C)(O)[C@H](F)CNC(=O)c1cnc(-c2ccc3cc(C#N)cnn23)cc1Nc1ccc2c(c1)C1(CC1)C(=O)N2                  =      8.10
 7  CC(C)(O)[C@H](F)CNC(=O)c1cnc(-c2ccc3cc(C#N)cnn23)cc1NC1CCCC(S(C)(=O)=O)C1 (single isomer, unassigned) [Example 516]                  =      8.70
 8  N#Cc1cnn2c(-c3cc(NC45CCC(O)(CC4)CC5)c(C(=O)NCC4CCO4)cn3)ccc2c1 (stereo not shown)                  =      8.70
 9  COCCNC(=O)C12CCC(Nc3cc(-c4ccc5cc(C#N)cnn45)ncc3C(=O)NC[C@@H](F)C(C)(C)O)(CC1)CC2                  =      9.00
10  COC(=O)N1CC[C@@H](Nc2cc(-c3ccc4cc(C#N)cnn34)ncc2C(=O)NC[C@@H](F)C(C)(C)O)C1                  >      9.00
11  CC(C)(O)[C@H](F)CNC(=O)c1cnc(-c2ccc3cc(C#N)cnn23)cc1NC12CCC(O)(CC1)C2                  >      9.00
12  CC(C)(O)[C@H](F)CNC(=O)c1cnc(-c2ccc3cc(C#N)cnn23)cc1Nc1ccc(N2CCC2)nc1                  >      9.00
